- Test system: MCF7 breast
- assay remarks: NCI-60 one-dose screen, 48 h (100 = growth as untreated, 0 = no growth, -100 = all killed)
- test settings: 10 µM unless noted
- Protocol: Growth inhibition of the MCF7 human tumor cell line is measured as a screen for anti-cancer activity. Cells are grown in 96 well plates and exposed to the test compound for 48 hours. Compounds are tested at a single concentration, which is 10^-5 M for most compounds. The reported endpoint is percent growth (GI% or GIPRCNT), where numbers from 0 - 100% represent growth inhibition, and numbers from -100% - 0 represent cell death. For example, a value of 40 represents 60% growth inhibition. […]
The panel holds about 83,000 compounds, 20% with a hit somewhere; the sample as a whole holds those more often. Active and inactive are the calls of the source. How the source made its calls: active means growth percent below 10; inactive means the rest.
readout type: growth

The following compounds have reported results that may help.
1) CC(C)(C)n1cc(-c2ccnc(NCCCNS(=O)(=O)c3cccc4ccccc34)c2)c(-c2cccc(O)c2)n1 :: 11.5% (inactive)
2) O=C1C(Cl)=C(Cl)C(=O)c2c1nc1n2CCCC1 :: 70% (inactive)
3) O=C(CN1CCN(c2cc3c(cc2F)c(=O)c(C(=O)N/N=C/c2ccccc2)cn3C2CC2)CC1)N/N=C\c1ccccc1 :: 53.2% (inactive)
4) N#CC1=C(N)Oc2c(ccc3ccccc23)C1c1cccs1 (configuration not stated) :: 7.97% (active)
5) c1ccc(CSc2ncnc3nc[nH]c23)nc1 :: 99.7% (inactive)
6) CCCCNP1(NCCCC)=NP(NCCCC)(NCCCC)=NP(NCCCC)(NCCCC)=NP(NCCCC)(NCCCC)=N1 :: -7.14% (active)

We next turn to a different compound, shown below.
Fill in: growth of O=C(Nc1ccc(CN2CCOCC2)cc1)c1[nH]ncc1Nc1ncnc2sccc12 is ___
8.76% (active)
